Tested on: LPS-induced NO production in RAW 264.7 murine macrophages
Test: LPS-induced iNOS-dependent NO production (nitrite, Griess reagent assay)
Type: cell-based, mouse
Details: Mus musculus, RAW264.7, 20 h, read-out: IC50, NO generation
MEASURED ATTRIBUTE: pIC50
Please note pIC50 is a logarithmic value: minus log10 of concentration in mol/L. Answer with that number alone.

// pIC50 lookup, key: CCC(CCC(C)C1CCC2C3CC=C4CC(OC(=O)C=Cc5cc(O)c(OC)c(O)c5)CCC4(C)C3CCC12C)C(C)C (stereo not drawn) [Acrocarpunicain E (5), β-sitosteryl trans-3-hydroxyisoferulate]
4.17

----------
System: RAW 264.7 cells
Experiment: Cell viability, MTT assay
Assay type: cell-based, mouse
Conditions: RAW 264.7, MTT assay, with 1 μg/mL LPS, 20 h; mean ± S.E.M.
MEASURED ATTRIBUTE: Cell Viability (% Control)
# value in % Control; strip the unit string

Below are worked cases with known answers.
> print(dat)
                                   compound           target  observed
1  CC=CC1=CC2=CC3=C(C(=O)CCCCC)C(=O)OC3(C)C(=O)C2=CN1CC (stereo not drawn)  RAW 264.7 cells       100
2  CC=CC1=C(C)C(=O)C2(C)OC(=O)C(C(=O)CCCCC)C2C1 (stereo not drawn)  RAW 264.7 cells      62.2
3  CC=CC1=CC2=CC3=C(C(=O)CCCCCCC)C(=O)OC3(C)C(=O)C2=CN1CC (stereo not drawn)  RAW 264.7 cells      95.5
4  C/C=C/c1cc2cc3c(c(=O)c-2co1)C(=O)OC3C (stereo not drawn)  RAW 264.7 cells      92.7
5         COc1cc2ccc3c(c2cc1C(C)C)CCCC3(C)C  RAW 264.7 cells      91.3

In the following, a different compound is considered.
# input compound: O=c1c(O)c(-c2ccc(O)c(O)c2)oc2cc(O)cc(O)c12 [Quercetin, reference compound] ; wanted: its Cell Viability (% Control)
95.9

----------
Test system: LPS-induced NO production in RAW 264.7 murine macrophages
Experiment: LPS-induced iNOS-dependent NO production (nitrite, Griess reagent assay)
Assay type: cell-based, mouse
Conditions: RAW 264.7 murine macrophages, 1 μg/mL LPS, 20 h; mean ± S.E.M. of three independent experiments; listed as 3; read-out: IC50, NO generation
pIC50: −log10 of the molar value.
MEASURED ATTRIBUTE: pIC50

Looking for the measured pIC50 of C/C=C/c1cc2cc3c(c(=O)c-2co1)C(=O)OC3C (stereo not shown) , can you help?
≥ 4.57
